Reported IC50 on UniProtKB Q01279 for assorted molecules, compiled from publications.

Record excerpt, results attached:
molecule: Cn1c(SSc2c(C(=O)Nc3ccccc3)c3ccccc3n2C)c(C(=O)Nc2ccccc2)c2ccccc21
IC50: > 100 µM
//
molecule: COc1cccc2c(C(=O)Nc3ccccc3)c(SSc3c(C(=O)Nc4ccccc4)c4cccc(OC)c4n3C)n(C)c12
IC50: > 100 µM
//
molecule: Nc1cc(C(=O)O)ccc1O
IC50: > 653 µM

Fill in: IC50 on UniProtKB Q01279, entry CN(C(=O)Nc1ccccc1)C1CCCC1 > 1000 µM

Fill in: IC50 on UniProtKB Q01279, entry CN1C(=S)C(C(=O)Nc2ccccc2)c2ccccc21 (configuration not stated) > 100 µM

Fill in: IC50 on UniProtKB Q01279, entry Cn1c(SSc2c(C(=O)Nc3ccccc3)c3cccnc3n2C)c(C(=O)Nc2ccccc2)c2cccnc21 > 25 µM

Fill in: IC50 on UniProtKB Q01279, entry CN(C(=O)NC1CCCC1)c1ccccn1 > 1000 µM
